Experimental System: neurokinin-1 (NK-1) receptor (Homo sapiens)
Construct: endogenously expresses the neurokinin-1 (NK-1) receptor; endogenous in cells
Sequence (P25103 whole entry): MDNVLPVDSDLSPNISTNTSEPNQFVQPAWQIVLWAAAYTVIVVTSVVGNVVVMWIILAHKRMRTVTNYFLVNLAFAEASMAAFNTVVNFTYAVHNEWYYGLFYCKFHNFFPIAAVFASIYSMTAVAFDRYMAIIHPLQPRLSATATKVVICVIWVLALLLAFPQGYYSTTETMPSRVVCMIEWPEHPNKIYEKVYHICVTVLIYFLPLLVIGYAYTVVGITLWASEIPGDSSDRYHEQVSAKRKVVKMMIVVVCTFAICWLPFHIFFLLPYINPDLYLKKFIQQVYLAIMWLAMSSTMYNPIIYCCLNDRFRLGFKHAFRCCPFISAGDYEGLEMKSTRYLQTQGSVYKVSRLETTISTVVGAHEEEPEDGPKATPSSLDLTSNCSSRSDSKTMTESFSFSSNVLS
Assay Remarks: NK-1 binding assay, [125I] Substance P competition on U373 cell membranes
Assay Context: Bolton Hunter labeled [125I] Substance P displacement
Hi there, I'd appreciate the recorded IC50 for every entry that follows.

Lookup: # return recorded IC50 for input FC(F)(F)c1cc(COCC2(c3ccccc3)CCCCNCC2)cc(C(F)(F)F)c1 (centres unmarked)
Found: < 20 nM

Lookup: Given the compound FC(F)(F)c1cc(COCC2(c3ccccc3)CCCNCCC2)cc(C(F)(F)F)c1 , write its reported IC50.
Found: < 20 nM
